- STUDY TARGET: MAGI2_3, Q86UL8
- Sequence (Q86UL8 600-682): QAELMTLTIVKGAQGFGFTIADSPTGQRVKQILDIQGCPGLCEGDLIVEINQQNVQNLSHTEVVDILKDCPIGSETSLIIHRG
- ASSAY INFO: holdup assay
- Parameters: key: below the threshold = too weak to quantify, mostly under pKd 3.1 to 4
- COND: plain residues with an end cap or a label only (N-terminal biotin on a linker: ado-ado)
ASSAY READOUT: pKd

NLSIEKETKL [ASNSD1, Q9NWL6]: below the threshold
LPHPHSTTRV [NLGN2, Q8NFZ4]: 4.24
LKVPPEERLI [CRB2, Q5IJ48]: below the threshold
HSGYRLNDYV [CLDN14, O95500]: below the threshold
